MOLECULE: CC(C)C(=O)Nc1cn(-c2cncc(F)c2)nc1C=O
melting point: 140 to 142 °C
//
MOLECULE: C#CCN(C(=O)C(C)C)c1cn(-c2cncc(F)c2)nc1C
melting point: 99 to 100 °C
//
MOLECULE: C#CCN(C(=O)C(C)C)c1cn(-c2cccnc2)nc1Cl
melting point: 98 to 99 °C
//
MOLECULE: C#CCN(C(=O)CSC)c1cn(-c2cccnc2)nc1Cl
melting point: 65 to 68 °C
//
MOLECULE: Cc1nn(-c2cncc(F)c2)cc1NC(=O)OC(C)(C)C
melting point: 131.5 to 133 °C
//
MOLECULE: C#CCN(C(=O)OC(C)(C)C)c1cn(-c2cccnc2)nc1C
melting point: 73 to 75 °C
//
MOLECULE: CC(C)C(=O)Nc1cn(-c2cncc(F)c2)nc1CCl
melting point: 172 to 177 °C
//
MOLECULE: CCN(C(=O)CC(OC)(C(F)(F)F)C(F)(F)F)c1cn(-c2cccnc2)nc1C
melting point: 83 to 86 °C
//
MOLECULE: CC(C)(C)OC(=O)Nc1cn(-c2cncc(F)c2)nc1C1CC1
melting point: 156.5 to 158 °C
//
MOLECULE: C#CCN(C(=O)C(C)C)c1cn(-c2cccnc2)nc1C
melting point: 89 to 90 °C
//
MOLECULE: CSCC(C)(C)C(=O)N(C)c1cc(-c2cccnc2)nn1C
melting point: 190 to 193 °C
//
MOLECULE: C#CCN(C(=O)CCSC(c1ccccc1)(c1ccccc1)c1ccccc1)c1cn(-c2cccnc2)nc1Cl
melting point: 68 to 70 °C
//
MOLECULE: CC(C)C(=O)Nc1cn(-c2cncc(F)c2)nc1CO
melting point: 144 to 146 °C
//
MOLECULE: C#CCN(C(=O)OC(C)(C)C)c1cn(-c2cncc(F)c2)nc1C
melting point: 81 to 82 °C
//
MOLECULE: C#CCN(C(=O)CC(SC)C1CC1)c1cn(-c2cccnc2)nc1Cl (stereo not drawn)
melting point: 109 to 112 °C
